B1: VH:VL chains; a variant is named by its letters at X, in order (parent)
chain 1: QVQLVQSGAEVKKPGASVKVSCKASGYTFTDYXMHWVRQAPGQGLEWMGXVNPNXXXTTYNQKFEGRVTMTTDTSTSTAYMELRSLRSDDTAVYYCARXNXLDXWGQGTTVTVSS
chain 2: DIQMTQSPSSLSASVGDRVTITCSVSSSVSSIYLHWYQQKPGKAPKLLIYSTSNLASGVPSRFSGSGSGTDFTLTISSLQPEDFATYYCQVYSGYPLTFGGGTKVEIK

# Variants of: B1
# Protocol Text: yeast display scFab, FACS + sequencing
Reported Endpoint: non-specific binding call

[
  {
    "Sequence Change": "VKARGSVA",
    "Meas Value": "binds"
  },
  {
    "Sequence Change": "STGTGYVF",
    "Meas Value": "no binding"
  },
  {
    "Sequence Change": "AKTRDFVA",
    "Meas Value": "binds"
  },
  {
    "Sequence Change": "YKEEDDAV",
    "Meas Value": "no binding"
  },
  {
    "Sequence Change": "VRARGALV",
    "Meas Value": "binds"
  }
]

Task: Need non-specific binding call of DATGNVWS , thanks.
Output: binds

Task: What value of non-specific binding call has been recorded for this entry: DKGGAVWT
Output: no binding

Task: Consider the variant VKGRASGY and give its measured non-specific binding call.
Output: no binding

Task: Fill in: non-specific binding call of FRGRGDWV is ___
Output: no binding

Task: Entry YRGGDDSS has what non-specific binding call?
Output: no binding

Task: Fill in the blank: the reported non-specific binding call of FTGRGAAA is ____.
Output: binds

Task: Entry under review: YRARGAVS . Reported non-specific binding call?
Output: binds

Task: # input variant: FRGKGAGS ; wanted: its non-specific binding call
Output: binds

Task: Data request, read-out non-specific binding call, for YRTEGAVA
Output: binds

Task: Please give the measured non-specific binding call for this variant: FKGGGFGA
Output: binds

Task: Looking for the measured non-specific binding call of YKGRGASS , can you help?
Output: binds

Task: If you can, please state the reported non-specific binding call value of YRRGGSSA .
Output: binds

Task: So what does the record say about non-specific binding call for YRRRGASA ?
Output: binds
